These data points were gathered from paper PMC9482650.

assayed-system: Inadl_10, Q8NI35
Sequence (Q8NI35 1673-1763): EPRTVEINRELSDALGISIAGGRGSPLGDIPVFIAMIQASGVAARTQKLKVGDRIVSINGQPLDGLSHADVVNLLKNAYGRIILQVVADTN
assay-overview: holdup assay
Parameters: key: below the threshold = too weak to quantify, mostly under pKd 3.1 to 4
experimental-conditions: plain residues with an end cap or a label only (N-terminal biotin on a linker: ahx)
observation-type: pKd

# count of solved cases: 4
TEAKLTETNA [MYO18A, Q92614]    below the threshold
QNTDDVQTSF [ACE2, Q9BYF1]    below the threshold
TQKFRASTAL [FRMPD1, Q5SYB0]    3.61
HTHSYIETHV [CNKSR2, Q8WXI2]    below the threshold

# evaluate next
Enquiry: Provide measured pKd value, entry: QPRTWLQSPV [RTKN, Q9BST9]
Return: below the threshold
